Test system: U-251
Assay: Growth inhibition of human U251 cells after 48 hrs by sulforhodamine B assay
Type: functional
Conditions: U-251, 48 h
Measured Property: GI50 (µM)
// units = µM; emit number, no label

Ask | # query: GI50 of entry "O=C(CN1C(=O)N/C(=C\c2ccc(Cl)cc2)C1=O)Nc1ccc(Cl)cc1"
Reply | 14.8

Ask | Param item: "COc1ccc(/C=C2/NC(=O)N(CC(=O)Nc3cc(C(F)(F)F)ccc3Cl)C2=O)cc1"
Reply | 9.33

Ask | Param item: "COc1ccc(/C=C2/NC(=O)N(CC(=O)Nc3cccc(C(F)(F)F)c3)C2=O)cc1"
Reply | 25.7

Ask | Param item: "COc1ccc(/C=C2\NC(=O)N(CC(=O)Nc3ccc(OC)cc3)C2=O)cc1"
Reply | 30.9

====

Below, each of the molecules is paired with its reported growth at 100 µM value.
Tested on: SF-268
Experiment: Cytotoxicity against human SF268 cells assessed as cell growth at 100 uM after 48 hrs by sulforhodamine B assay
Assay type: functional
Conditions: SF-268, 48 h, read-out: Activity
// units = %; emit number, no label

Below: 10 molecules and their reported growth at 100 µM.
COc1ccc(/C=C2/NC(=O)N(CC(=O)Nc3cccc(C(F)(F)F)c3)C2=O)cc1: 65
O=C(CN1C(=O)N/C(=C\c2ccc(F)cc2)C1=O)Nc1ccccc1C(F)(F)F: 100
O=C(CC1NC(=O)NC1=O)Nc1ccc(Cl)cc1 (stereo unspecified): 114
O=C(CC1SC(=O)NC1=O)Nc1nccs1 (stereo unspecified): 114
O=C(/C=C1\SC(=O)N(CC(=O)Nc2ccccc2C(F)(F)F)C1=O)Nc1ccc(Cl)cc1: 86
O=C(CN1C(=O)N/C(=C/c2ccc(Cl)cc2)C1=O)Nc1cccc(C(F)(F)F)c1: 100
O=C(CN1C(=O)S/C(=C\C=C\c2ccccc2)C1=O)Nc1ccc(Cl)cc1: 98
COc1ccc(/C=C2\SC(=O)N(CC(=O)Nc3nccs3)C2=O)cc1: 107
O=C(/C=C1\SC(=O)N(CC(=O)Nc2cccc(C(F)(F)F)c2)C1=O)Nc1ccc(Cl)cc1: 100
O=C(CN1C(=O)CNC1=O)Nc1cccc(C(F)(F)F)c1: 113

Ask | growth at 100 µM of "O=C(/C=C1\SC(=O)N(CC(=O)Nc2ccccc2C(F)(F)F)C1=O)Nc1ccc(F)cc1" on SF-268?
Reply | 75

Ask | Param item: O=C(CC1NC(=O)NC1=O)Nc1nccs1 (stereo unspecified)
Reply | 114

Ask | Param item: "O=C(CN1C(=O)S/C(=C\c2ccc(Cl)cc2)C1=O)Nc1ccc(Cl)cc1"
Reply | 105

Ask | Param item: "O=C(CN1C(=O)N/C(=C\C=C\c2ccccc2)C1=O)Nc1ccc(Cl)cc1"
Reply | 39

Ask | Param item: "O=C(CN1C(=O)S/C(=C/c2ccc(Cl)cc2)C1=O)Nc1cccc(C(F)(F)F)c1"
Reply | 110

Ask | Param item: "O=C(/C=C1\SC(=O)N(CC(=O)Nc2ccc(Cl)cc2)C1=O)Nc1ccc(Cl)cc1"
Reply | 116

====

System: MDA-MB-231
Assay: Growth inhibition of human MDA-MB-231 cells after 48 hrs by sulforhodamine B assay
Format: functional
Details: MDA-MB-231, 48 h, read-out: pTGI (converted)
Below, each of the compounds is paired with its reported TGI value.
// units = µM; emit number, no label

Below: 2 compounds and their reported TGI.
COc1ccc(/C=C2/NC(=O)N(CC(=O)Nc3cccc(C(F)(F)F)c3)C2=O)cc1: 58.9
O=C(CN1C(=O)N/C(=C/c2ccc(Cl)cc2)C1=O)Nc1cccc(C(F)(F)F)c1: 22.9

// switching to the query compound
Ask | # query: TGI of entry "O=C(CN1C(=O)N/C(=C\c2ccc(Cl)cc2)C1=O)Nc1ccc(Cl)cc1"
Reply | 42.7

Provenance of the data: ChEMBL document CHEMBL1153575
